- MEASUREMENT_PROTOCOL: clinical
- CONDITION_INFO: human, urine, po, 5 mg
MEASURED_ENDPOINT: CL renal

Which CL renal reading was recorded for the compound CC#CCn1c(N2CCC[C@@H](N)C2)nc2c1c(=O)n(Cc1nc(C)c3ccccc3n1)c(=O)n2C ?
~70 mL/min

###

- MEASUREMENT_PROTOCOL: clinical
- CONDITION_INFO: human, urine, po
MEASURED_ENDPOINT: CL renal

Which CL renal reading was recorded for the compound CC#CCn1c(N2CCC[C@@H](N)C2)nc2c1c(=O)n(Cc1nc(C)c3ccccc3n1)c(=O)n2C ?
14 to 70 mL/min
